assay: Plasma and tumor tissue concentrations following oral administration in VCaP xenograft model (HPLC/MS/MS); type: in vivo, mice; settings: mouse, tumor tissue / plasma, 10 mg/kg orally once daily for 3 days, 6 hours after the last administration, read-out: Tissue to Plasma Ratio
Property Name: Kp at 6 h
Form rule: numeric answer, no unit written next to it.

Ask: Which Kp at 6 h value is on record for N#Cc1ccc(N2CCC(C(=O)Nc3ccc(OC4CCN(CC5CCN(c6ccc(N[C@H]7CCC(=O)NC7=O)cc6F)CC5)CC4)cn3)CC2)cc1C(F)(F)F ?
Reply: 10.1

====

experiment: Plasma and tumor tissue concentrations following oral administration in VCaP xenograft model (HPLC/MS/MS); assay type: in vivo, mice; conditions: mouse, tumor tissue, 10 mg/kg orally once daily for 3 days, 24 hours after the last administration, read-out: Concentration in Tumor Tissue
Property Name: concentration at 24 h (ng/g)
A number alone suffices; assume ng/g.

Ask: Which concentration at 24 h value is on record for N#Cc1ccc(N2CCC(C(=O)Nc3ccc(OC4CCN(CC5CCN(c6ccc(N[C@H]7CCC(=O)NC7=O)cc6F)CC5)CC4)cn3)CC2)cc1C(F)(F)F ?
Reply: 834
